Recorded percent inhibition of Factor XI mRNA, relative to untreated control cells for the following substances
tested on: human Factor XI mRNA; experiment: Dose-dependent inhibition in HepG2 cells, electroporation (Example 4); type: cell-based; details: 0.7 μM, 16 hours
In the oligonucleotide strings, read from the 5' end, every base follows the letter of its sugar. An asterisk marks phosphorothioate; unmarked linkages are phosphodiester. Other units and linkages are bracketed, terminal groups are in braces. A string of capitals states the bases alone. e = 2'-O-(2-methoxyethyl) (MOE); [5mC] = 5-methylcytosine; d = 2'-deoxy (DNA)
Report the value in % with no unit label.

Solved entries (count: 3):
substance	reported
417003 (antisense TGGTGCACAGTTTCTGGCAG; 2-13-5 gapmer, wing sugar chemistry not given here, further chemistry not given here) [compound 417003]	0
416827 (antisense eT*eA*eT*eG*e[5mC]*d[5mC]*d[5mC]*dT*dT*d[5mC]*dA*dT*dG*dT*d[5mC]*eT*eA*eG*eG*eT) [compound 416827]	37
416826 (antisense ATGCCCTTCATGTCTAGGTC; 5-10-5 gapmer, wing sugar chemistry not given here, further chemistry not given here) [compound 416826]	2

Input 416850 (antisense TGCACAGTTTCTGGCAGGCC; 5-10-5 gapmer, wing sugar chemistry not given here, further chemistry not given here) [compound 416850] . Output percent inhibition of Factor XI mRNA, relative to untreated control cells: 14

Entry under test: 416969 (antisense eG*e[5mC]*d[5mC]*d[5mC]*dT*dT*d[5mC]*dA*dT*dG*dT*d[5mC]*dT*dA*dG*eG*eT*e[5mC]*e[5mC]*eA) [compound 416969] . Its percent inhibition of Factor XI mRNA, relative to untreated control cells was 25
